- TARGET ENTITY: Endothelin-converting enzyme 1 (Homo sapiens)
- Sequence (P42892 whole entry): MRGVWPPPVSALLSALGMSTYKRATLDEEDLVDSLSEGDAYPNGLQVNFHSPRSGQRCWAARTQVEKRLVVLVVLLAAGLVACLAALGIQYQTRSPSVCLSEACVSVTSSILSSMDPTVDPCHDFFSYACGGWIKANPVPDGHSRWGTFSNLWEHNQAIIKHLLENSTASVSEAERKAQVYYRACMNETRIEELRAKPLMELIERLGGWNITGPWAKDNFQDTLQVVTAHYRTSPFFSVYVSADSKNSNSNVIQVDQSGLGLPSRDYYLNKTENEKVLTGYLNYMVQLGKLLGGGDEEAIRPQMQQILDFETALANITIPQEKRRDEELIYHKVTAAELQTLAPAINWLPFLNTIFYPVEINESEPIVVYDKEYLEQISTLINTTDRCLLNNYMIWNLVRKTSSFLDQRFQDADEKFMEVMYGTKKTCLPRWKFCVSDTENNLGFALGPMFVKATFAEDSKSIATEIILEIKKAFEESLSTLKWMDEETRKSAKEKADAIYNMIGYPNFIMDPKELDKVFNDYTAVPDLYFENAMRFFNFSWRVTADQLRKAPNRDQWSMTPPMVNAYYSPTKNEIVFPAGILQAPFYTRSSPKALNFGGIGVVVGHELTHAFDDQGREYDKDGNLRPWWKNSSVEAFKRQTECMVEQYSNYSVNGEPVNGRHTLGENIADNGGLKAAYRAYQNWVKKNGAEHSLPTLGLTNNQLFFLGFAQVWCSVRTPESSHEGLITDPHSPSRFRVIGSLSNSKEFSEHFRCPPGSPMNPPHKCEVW
- ASSAY REMARKS: Enzyme Activity Assay
- TEST CONTEXT: pH 7.4
- Protocol: Recombinant ECE2 (32.5 ng) with a specific activity of 12 pmol/min/μg protein was generated as described previously. Secreted soluble recombinant ECE1 (30 ng) with a specific activity of 750 pmol/min/μg protein was generated and purified using a protocol similar to that used for ECE2. Solubilized midbrain membranes (10 μg) from wildtype or ECE2 knock-out mice were prepared as described. […]
QUANTITY NAME: IC50 (nM)
# number only, unit nM dropped from output

# input compound: Cc1[nH]nc(NC(=O)NS(=O)(=O)c2ccc(Cl)cc2)c1C#N [SM19712] ; wanted: its IC50
1100
